Measured IC50 by item
target: AChE (electric eel) (Electrophorus electricus, UniProt O42275); experiment: Ellman assay, 96-well, […] nm; format: biochemical; conditions: read-out: AChE IC50
Sequence (O42275 24-633): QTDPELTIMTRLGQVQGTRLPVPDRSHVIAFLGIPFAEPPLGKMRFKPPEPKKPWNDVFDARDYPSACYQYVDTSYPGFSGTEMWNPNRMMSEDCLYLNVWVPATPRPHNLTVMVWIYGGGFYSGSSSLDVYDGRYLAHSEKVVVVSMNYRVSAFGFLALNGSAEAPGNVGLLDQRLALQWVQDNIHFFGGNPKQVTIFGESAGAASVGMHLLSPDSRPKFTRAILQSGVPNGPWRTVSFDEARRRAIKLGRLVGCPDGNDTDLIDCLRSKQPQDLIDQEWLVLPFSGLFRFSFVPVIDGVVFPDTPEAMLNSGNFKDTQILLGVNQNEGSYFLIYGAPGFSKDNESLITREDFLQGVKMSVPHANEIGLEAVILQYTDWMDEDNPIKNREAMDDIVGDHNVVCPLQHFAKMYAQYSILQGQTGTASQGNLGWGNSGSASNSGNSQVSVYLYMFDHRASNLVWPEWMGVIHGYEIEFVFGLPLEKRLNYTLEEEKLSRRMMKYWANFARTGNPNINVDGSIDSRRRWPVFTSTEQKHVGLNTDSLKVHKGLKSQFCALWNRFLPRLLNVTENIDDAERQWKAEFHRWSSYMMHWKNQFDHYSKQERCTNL
REPORTED METRIC: IC50

[[record]]
compound = "CCN(CC)CC(O)COC(=O)c1ccc(NC(=O)OC)cc1 (stereo not shown) [5e]"
reported_metric = "IC50"
observed_measurement = "> 100 µM"

[[record]]
compound = "CCCCOC(=O)Nc1ccc(C(=O)OCC(O)CN(C)C)cc1 (stereo not shown) [5d]"
reported_metric = "IC50"
observed_measurement = "> 100 µM"

[[record]]
compound = "CCCOC(=O)Nc1ccc(C(=O)OCC(O)C[N+](C)(C)C)cc1 (stereo not shown) [6g]"
reported_metric = "IC50"
observed_measurement = "> 100 µM"

[[record]]
compound = "CCCOC(=O)Nc1ccc(C(=O)OCC(O)CN(C)C)cc1 (stereo not shown) [5c]"
reported_metric = "IC50"
observed_measurement = "> 100 µM"

[[record]]
compound = "CC[N+](C)(C)CC(O)COC(=O)c1ccc(NC(=O)OC)cc1 (stereo not shown) [6b]"
reported_metric = "IC50"
observed_measurement = "100 µM"

[[record]]
compound = "CCOC(=O)Nc1ccc(C(=O)OCC(O)C[N+](C)(C)C)cc1 (stereo not shown) [6d]"
reported_metric = "IC50"
observed_measurement = "> 100 µM"

[[record]]
compound = "CCOC(=O)Nc1ccc(C(=O)OCC(O)C[N+](C)(CC)CC)cc1 (stereo not shown) [6f]"
reported_metric = "IC50"
observed_measurement = "56 µM"

